B1: FCHO1 (parent)
chain: HLELTRKLQDLIKDVLRYGEEQLK

# Variants of: B1
# METHOD DESCRIPTION: protein stability index of a GFP-peptide fusion (GPS, HEK-293T) (PSI 1-6); higher = more stable;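 further: lentivirally expressed fusions sorted by FACS into six bins by GFP to DsRed ratio, PSI derived from sequencing read proportions per bin multiplied by bin number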
# ASSAY CONTEXT: c terminus: a fixed tail appended
Field: protein stability index. Provide a value for each of the variants that follow.
Respond using a number only.

Task: Which protein stability index is listed for HLELTRKKQDLIKDVLRYGEEQLK [L8K] ?
Result: 2.74

Task: Which protein stability index is listed for HLELTRKWQDLIKDVLRYGEEQLK [L8W] ?
Result: 1.36

Task: Which protein stability index is listed for HLEGTRKLQDLIKDVLRYGEEQLK [L4G] ?
Result: 2.02

Task: Which protein stability index is listed for HLELTRKLQDLIKDVLRYAEEQLK [G19A] ?
Result: 2.5

Task: Which protein stability index is listed for HLELTRKLQDSIKDVLRYGEEQLK [L11S] ?
Result: 2.67

Task: Which protein stability index is listed for HLELTRKHQDLIKDVLRYGEEQLK [L8H] ?
Result: 2.71

Task: Which protein stability index is listed for HLELTRKLQDLEKDVLRYGEEQLK [I12E] ?
Result: 3.82

Task: Which protein stability index is listed for HLELTRKLQDQIKDVLRYGEEQLK [L11Q] ?
Result: 2.47

Task: Which protein stability index is listed for PLELTRKLQDLIKDVLRYGEEQLK [H1P] ?
Result: 1.79

Task: Which protein stability index is listed for HLELTRKLQDLIKIVLRYGEEQLK [D14I] ?
Result: 2.7

Task: Which protein stability index is listed for HLELTNKLQDLIKDVLRYGEEQLK [R6N] ?
Result: 1.61

Task: Which protein stability index is listed for HLELNRKLQDLIKDVLRYGEEQLK [T5N] ?
Result: 2.14

Task: Which protein stability index is listed for HLELTRKLQDLIKDVMRYGEEQLK [L16M] ?
Result: 2.69

Task: Which protein stability index is listed for HLELTRKLQDLSKDVLRYGEEQLK [I12S] ?
Result: 2.51

Task: Which protein stability index is listed for HLELTRKLQDLIKDVLHYGEEQLK [R17H] ?
Result: 3.28

Task: Which protein stability index is listed for HLELTRKLQDLIKDVVRYGEEQLK [L16V] ?
Result: 4.13

Task: Which protein stability index is listed for HLELTRKLQDLIKDVLRYGEWQLK [E21W] ?
Result: 1.81

Task: Which protein stability index is listed for HLELTRKLKDLIKDVLRYGEEQLK [Q9K] ?
Result: 3.73

Task: Which protein stability index is listed for HLELTRGLQDLIKDVLRYGEEQLK [K7G] ?
Result: 2.68

Task: Which protein stability index is listed for HLELTRKLQDPIKDVLRYGEEQLK [L11P] ?
Result: 4.34

Task: Which protein stability index is listed for HLELTRKLQDYIKDVLRYGEEQLK [L11Y] ?
Result: 1.09

Task: Which protein stability index is listed for HLELTRKLQDLIKDVLRYGEMQLK [E21M] ?
Result: 3.24

Task: Which protein stability index is listed for HLELTRSLQDLIKDVLRYGEEQLK [K7S] ?
Result: 2.75

Task: Which protein stability index is listed for HLELTRKLQELIKDVLRYGEEQLK [D10E] ?
Result: 3.03

Task: Which protein stability index is listed for HLELTRKLQDLICDVLRYGEEQLK [K13C] ?
Result: 2.28

Task: Which protein stability index is listed for HLELTRPLQDLIKDVLRYGEEQLK [K7P] ?
Result: 1.51

Task: Which protein stability index is listed for HLELLRKLQDLIKDVLRYGEEQLK [T5L] ?
Result: 3.42

Task: Which protein stability index is listed for HLELTRKLQDLIKPVLRYGEEQLK [D14P] ?
Result: 2.97

Task: Which protein stability index is listed for QLELTRKLQDLIKDVLRYGEEQLK [H1Q] ?
Result: 2.8

Task: Which protein stability index is listed for HLELTRKLQDLIKDVLRYGYEQLK [E20Y] ?
Result: 2.65

Task: Which protein stability index is listed for HLELTRKLQDLIKDVKRYGEEQLK [L16K] ?
Result: 1.44

Task: Which protein stability index is listed for HLELTRKLQDLIKDVLRYIEEQLK [G19I] ?
Result: 2.01

Task: Which protein stability index is listed for HLYLTRKLQDLIKDVLRYGEEQLK [E3Y] ?
Result: 2.52

Task: Which protein stability index is listed for HLEVTRKLQDLIKDVLRYGEEQLK [L4V] ?
Result: 3.17

Task: Which protein stability index is listed for HLELTRYLQDLIKDVLRYGEEQLK [K7Y] ?
Result: 1.78

Task: Which protein stability index is listed for HLELTRKLQDLIKDSLRYGEEQLK [V15S] ?
Result: 1.88

Task: Which protein stability index is listed for HLELTRKLQDLIKDVLRYGEEQLP [K24P] ?
Result: 2.02

Task: Which protein stability index is listed for HLELTRKLQDLIKDVLRYREEQLK [G19R] ?
Result: 2.53

Task: Which protein stability index is listed for HLELTRKLQDLIKDVLRYGEEQQK [L23Q] ?
Result: 2.06

Task: Which protein stability index is listed for HLELTRKLQDLIKDVYRYGEEQLK [L16Y] ?
Result: 1.93

Task: Which protein stability index is listed for HLELTRKLQDLIPDVLRYGEEQLK [K13P] ?
Result: 2.63

Task: Which protein stability index is listed for HLELTRKLQDLIYDVLRYGEEQLK [K13Y] ?
Result: 1.33

Task: Which protein stability index is listed for HLELTRKLQDLIKDVLRYGEEQLL [K24L] ?
Result: 2.8

Task: Which protein stability index is listed for HLELTRKLQDLIKDVLRYGEEQNK [L23N] ?
Result: 2.61

Task: Which protein stability index is listed for HLELTRKLQDLIKDVLRYQEEQLK [G19Q] ?
Result: 1.59

Task: Which protein stability index is listed for HLELTRKLMDLIKDVLRYGEEQLK [Q9M] ?
Result: 3.55
